- ASSAY SYSTEM: T1, 4H2728-AA
- T1 chain: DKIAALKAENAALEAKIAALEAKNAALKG
- ASSAY REMARKS: two-hybrid library CCmax;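 note: natural log of median RNA to DNA barcode read ratio; higher means stronger binding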
- RECORDED CONDITIONS: mean of both orientations
MEASURED QUANTITY: interaction score

a = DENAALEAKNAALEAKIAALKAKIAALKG [4H1454-AA]
b = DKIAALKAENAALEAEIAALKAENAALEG [4H2699-AA]
Param metric = interaction score; output whichever of a , b has the minimum value. Kindly state the label of the option you pick.
a

1 = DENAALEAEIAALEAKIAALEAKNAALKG [4H1064-AA]
2 = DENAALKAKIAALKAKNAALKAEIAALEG [4H1913-AA]
Param metric = interaction score; output whichever of 1 , 2 has the minimum value. Kindly state the label of the option you pick.
1
(1: -1.43, 2: 0.365)

Taken from paper PMC10397247.
